B1: NETO1 (parent)
chain: KTSLLDQLTNTSGTVIGVTSCIVI

- Variants of: B1
- TEST METHOD NOTES: protein stability index of a GFP-peptide fusion (GPS, HEK-293T) (PSI 1-6); higher = more stable;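 also: lentivirally expressed fusions sorted by FACS into six bins by GFP to DsRed ratio, PSI derived from sequencing read proportions per bin multiplied by bin number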
- ASSAY CONDITIONS: c terminus: a fixed tail appended
QUANTITY: protein stability index
The answer should be a number; do not append a unit.

>  <MUTANT DESIGNATION>
D6R

>  <REPORTED MEASUREMENT>
3.02

$$$$
>  <MUTANT DESIGNATION>
L8Q

>  <REPORTED MEASUREMENT>
3.09

$$$$
>  <MUTANT DESIGNATION>
V15I

>  <REPORTED MEASUREMENT>
3.08

$$$$
>  <MUTANT DESIGNATION>
S20P

>  <REPORTED MEASUREMENT>
2.98

$$$$

Bench note: what protein stability index did T19G show?
3

Name the reported protein stability index value associated with the variant T19V
2.91

// lookup protein stability index for K1F
3.08
